target: furin, P09958; assay: furin cleavage Z-score vs untreated control; higher = more cleavage, active = 3.5 or more, inactive = 1 or less, 8 variable residues between constant flanks; conditions: 7.5 min;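 also: purified furin at 1:10 enzyme:substrate in 50 mM HEPES pH 7.5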
Sequence (P09958 whole entry): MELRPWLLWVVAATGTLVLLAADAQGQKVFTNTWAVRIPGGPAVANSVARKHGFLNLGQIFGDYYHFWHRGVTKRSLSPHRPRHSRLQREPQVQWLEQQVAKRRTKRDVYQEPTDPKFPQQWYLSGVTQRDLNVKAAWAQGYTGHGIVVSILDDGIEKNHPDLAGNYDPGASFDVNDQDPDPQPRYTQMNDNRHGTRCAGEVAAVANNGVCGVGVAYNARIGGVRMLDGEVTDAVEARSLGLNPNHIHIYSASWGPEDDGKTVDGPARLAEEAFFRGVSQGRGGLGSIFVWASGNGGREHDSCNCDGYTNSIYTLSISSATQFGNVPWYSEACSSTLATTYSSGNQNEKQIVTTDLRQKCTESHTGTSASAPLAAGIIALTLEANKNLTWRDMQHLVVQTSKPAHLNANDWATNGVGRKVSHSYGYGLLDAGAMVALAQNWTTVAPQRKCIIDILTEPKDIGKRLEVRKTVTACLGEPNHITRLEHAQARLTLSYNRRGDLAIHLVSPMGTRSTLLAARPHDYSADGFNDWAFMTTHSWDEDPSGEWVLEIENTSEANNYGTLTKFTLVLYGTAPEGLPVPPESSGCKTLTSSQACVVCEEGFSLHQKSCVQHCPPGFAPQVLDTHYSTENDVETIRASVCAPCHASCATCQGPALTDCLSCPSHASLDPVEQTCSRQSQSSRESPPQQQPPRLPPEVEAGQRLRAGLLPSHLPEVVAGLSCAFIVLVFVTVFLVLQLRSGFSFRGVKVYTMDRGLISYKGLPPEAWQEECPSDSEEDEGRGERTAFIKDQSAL
The list shows a part of the results. The hit rate among all sequences tested is not known here.
Could you please pick one outcome from this set? active, inactive

Sample answers from the record:
{"chain": "CAPQAILDMIAGNASASA [HC331]", "assigned_label": "inactive"}
{"chain": "CAQPPRPFRSAGNASASA [FS-704]", "assigned_label": "inactive"}
{"chain": "CAWEKRSRGQAGNASASA [FS-2625]", "assigned_label": "inactive"}

Problem: Hello, I am checking results. What call was entered for CALEGRVRRAAGNASASA [FS-268] ?
Solution: active

Problem: Hello, I am checking results. What call was entered for CAPRDRPRRSAGNASASA [FS-1384] ?
Solution: active

Problem: Hello, I am checking results. What call was entered for CADPKRTIGQAGNASASA [FS-1982] ?
Solution: inactive

Problem: Hello, I am checking results. What call was entered for CAGGPLTNSRAGNASASA [HC1502] ?
Solution: inactive
